Would you kindly list polymerase ribozyme fitness (log ratio) for each of these variants?
B1: TPR t1 (parent)
chain: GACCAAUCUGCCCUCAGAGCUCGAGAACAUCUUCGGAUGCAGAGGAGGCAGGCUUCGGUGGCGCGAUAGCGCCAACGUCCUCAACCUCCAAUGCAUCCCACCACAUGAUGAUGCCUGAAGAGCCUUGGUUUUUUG

Variants of: B1
measurement protocol: polymerase ribozyme fitness, log enrichment relative to wild type (log ratio); higher = more active; in vitro selection for triplet polymerase activity
Answers are plain numbers.

These recorded examples may help you get a feel for the data.
residues="GACCAAUCUGCCCUCAGAGCUCGAGAACAUCUUCGGAUUCAGAGGAGGCAGCAUUCGGUGGCGCGAUAGCGCCAACGUCCUCUACCUCCAAUGCAUCCCACCACAUGAUGAUGCCUGAAGAGCCUUGGUUUUUUG [G39U G52C C53A A83U]" assay_readout="polymerase ribozyme fitness (log ratio)" reported_measurement=-3.01
residues="GACCUAUCUGCCCUCAGAGCUCGAGAACAUCUUCGGAUGCAGAGGAGGCAGGCUUCGGUGGCGCGAUAGUGCCAACGUCCUCAACCUCUAAUGCAUCCCACCACAUGAUUAUGCCUGAAGAGCCUUGGUUUUUUG [A5U C70U C89U G110U]" assay_readout="polymerase ribozyme fitness (log ratio)" reported_measurement=-2.97
residues="GACGAAUCUGCCCUCAGAGCUCGAGAACAUCUUCGGAUGCAGAGGAGGCAGGCUUCGGUGCCGCGAUAGCGCCAACGUCCUGAACCUCCAAUGCAUCCCACCACAUGAUGAUGCCUGAAGAGUCUUGGUUUUUUG [C4G G61C C82G C123U]" assay_readout="polymerase ribozyme fitness (log ratio)" reported_measurement=-3.08
residues="GACCAAGCUGCCCUCAGAGCUCGAGAACAUCUUCGUAUGCAGAGGAGGCAGGCUUCGGUGGCGCGAUAGCGCCAACGUCCUCAACCUCCAAUGCACCCCACCAUAUGAUGAUGCCUGAAGAGCCUUGGUUUUUUG [U7G G36U U96C C104U]" assay_readout="polymerase ribozyme fitness (log ratio)" reported_measurement=-3.09

# per-item lookup of polymerase ribozyme fitness (log ratio); items listed below
1. GACCGAUCUGCCCUCAGAGCUCGAGAACAUCUUCGGAUGCAGAGGAGGCAGGAUUCGGUGGCGCGAUAGCGCCAACGUCCUCAACCUCCAAUGCAUCCCACCACAUGAUGAUGCCUGAAGAGCCUUGGUUUUUUG [A5G C53A]
2. GACCAAUCUGCCCUCAGAGCUCGAGAACAUCUUCGGAUGCAGAGGAGGCAGGCUUCGGUGGCGCGAUAGGGCCAACGUCCUCAACCUCCAAUGCAUCCCACCACAUGAUGAUGCCUGAAGAGGCUUGGUUUUUUG [C70G C123G]

Output:
1. 0.65
2. -0.392

Input: Report polymerase ribozyme fitness (log ratio) for GACCAAUCUGCCCUCAGAGCUCGAGAAGAUCUUCGGAUGCAGAGGAGGCAGGUUUCGGUGGCGCGAGAGCGCGAACGUCCUCAACCUCCAAUGCAUCACACAACAUGAUGUUGGCUGAAGAGCCUUGGUUUUUUG [C28G C53U U67G C73G C98A C102A A111U C114G]
Output: -6
